Where do these numbers come from? They come from ChEMBL document CHEMBL5512642.

System: CCRF-CEM
protocol description: Induction of mitochondrial membrane potential loss in human CCRF-CEM cells assessed as cells with depolarized mitochondria (P2 gate) by measuring green fluorescence intensity at 5 time IC50 incubated for 24 hrs by JC-1 staining based flow cytometry (reference value: 2.1%)
experimental endpoint: Activity (%)
Field: numeric (%). Do not append units.

Record excerpt, results attached:
molecule: C=C(C)[C@@H]1CC[C@]2(C(=O)O)CC[C@]3(C)[C@H](CC[C@@H]4[C@@]5(C)Cc6c(C(F)(F)F)cc(=O)oc6C(C)(C)[C@@H]5CC[C@]43C)[C@@H]12
Activity (%): 30.2
//
molecule: CC(C)[C@@H]1CC[C@]2(C(=O)O)CC[C@]3(C)[C@H](CC[C@@H]4[C@@]5(C)Cc6c(C(F)(F)F)cc(=O)oc6C(C)(C)[C@@H]5CC[C@]43C)[C@@H]12
Activity (%): 28.6
//
molecule: C=C(C)[C@@H]1CC[C@]2(C(=O)O)CC[C@]3(C)[C@H](CC[C@@H]4[C@@]5(C)CC6=C(C7C(=O)N(c8ccccc8)C(=O)C7C=C6C(F)(F)F)C(C)(C)[C@@H]5CC[C@]43C)[C@@H]12 (stereo partly specified)
Activity (%): 2.6
//
molecule: C=C(C)[C@@H]1CC[C@]2(C(=O)O)CC[C@]3(C)[C@H](CC[C@@H]4[C@@]5(C)Cc6c(C(F)(F)F)cc(C(=O)OC)c(C(=O)OC)c6C(C)(C)[C@@H]5CC[C@]43C)[C@@H]12
Activity (%): 38.1
//
molecule: C[C@H]1[C@H](C)CC[C@]2(C(=O)O)CC[C@]3(C)C(=CC[C@@H]4[C@@]5(C)CC6=C(C7C(=O)N(c8ccccc8)C(=O)C7C=C6C(F)(F)F)C(C)(C)[C@@H]5CC[C@]43C)[C@H]12 (stereo partly specified)
Activity (%): 11.8

# next molecule below
What the record says about CC(C)[C@@H]1CC[C@]2(C(=O)O)CC[C@]3(C)[C@H](CC[C@@H]4[C@@]5(C)CC6=C(C7C(=O)N(c8ccccc8)C(=O)C7C=C6C(F)(F)F)C(C)(C)[C@@H]5CC[C@]43C)[C@@H]12 (stereo partly specified) : Activity is 6.7

###

protocol description: Stability in human plasma assessed as compound remaining measured 120 mins by RF-MS analysis
Assay type: ADME, cell-free
condition description: read-out: Stability
experimental endpoint: remaining at 2 h (%)
// units = %; emit number, no label

compound: CC(C)[C@@H]1CC[C@]2(C(=O)O)CC[C@]3(C)[C@H](CC[C@@H]4[C@@]5(C)CC6=C(C7C(=O)N(c8ccccc8)C(=O)C7C=C6C(F)(F)F)C(C)(C)[C@@H]5CC[C@]43C)[C@@H]12 (stereo partly specified)
reported result: 89
//
compound: CC(C)[C@@H]1CC[C@]2(C(=O)O)CC[C@]3(C)[C@H](CC[C@@H]4[C@@]5(C)Cc6c(C(F)(F)F)cc(=O)oc6C(C)(C)[C@@H]5CC[C@]43C)[C@@H]12
reported result: 94.2
//
compound: C[C@H]1[C@H](C)CC[C@]2(C(=O)O)CC[C@]3(C)C(=CC[C@@H]4[C@@]5(C)CC6=C(C7C(=O)N(c8ccccc8)C(=O)C7C=C6C(F)(F)F)C(C)(C)[C@@H]5CC[C@]43C)[C@H]12 (stereo partly specified)
reported result: 94.2
//
compound: C=C(C)[C@@H]1CC[C@]2(C(=O)O)CC[C@]3(C)[C@H](CC[C@@H]4[C@@]5(C)Cc6c(C(F)(F)F)cc(=O)oc6C(C)(C)[C@@H]5CC[C@]43C)[C@@H]12
reported result: 93.6

Record summary for C=C(C)[C@@H]1CC[C@]2(C(=O)O)CC[C@]3(C)[C@H](CC[C@@H]4[C@@]5(C)Cc6c(C(F)(F)F)cc(C(=O)OC)c(C(=O)OC)c6C(C)(C)[C@@H]5CC[C@]43C)[C@@H]12 : reported remaining at 2 h = 93.8

Reported remaining at 2 h for C=C(C)[C@@H]1CC[C@]2(C(=O)O)CC[C@]3(C)[C@H](CC[C@@H]4[C@@]5(C)CC6=C(C7C(=O)N(c8ccccc8)C(=O)C7C=C6C(F)(F)F)C(C)(C)[C@@H]5CC[C@]43C)[C@@H]12 (stereo partly specified) was 101

###

protocol description: Metabolic stability in human liver microsomes assessed as compound remaining at measured at 60 mins in presence of NADPH by RF-MS analysis
Format: ADME, Microsome
condition description: read-out: Stability
# remaining at 1 h per record follows
Report the value in % with no unit label.

compound: C=C(C)[C@@H]1CC[C@]2(C(=O)O)CC[C@]3(C)[C@H](CC[C@@H]4[C@@]5(C)Cc6c(C(F)(F)F)cc(C(=O)OC)c(C(=O)OC)c6C(C)(C)[C@@H]5CC[C@]43C)[C@@H]12
remaining at 1 h, %: 76
//
compound: C=C(C)[C@@H]1CC[C@]2(C(=O)O)CC[C@]3(C)[C@H](CC[C@@H]4[C@@]5(C)Cc6c(C(F)(F)F)cc(=O)oc6C(C)(C)[C@@H]5CC[C@]43C)[C@@H]12
remaining at 1 h, %: 70
//
compound: C[C@H]1[C@H](C)CC[C@]2(C(=O)O)CC[C@]3(C)C(=CC[C@@H]4[C@@]5(C)CC6=C(C7C(=O)N(c8ccccc8)C(=O)C7C=C6C(F)(F)F)C(C)(C)[C@@H]5CC[C@]43C)[C@H]12 (stereo partly specified)
remaining at 1 h, %: 45

Reported remaining at 1 h ( CC(C)[C@@H]1CC[C@]2(C(=O)O)CC[C@]3(C)[C@H](CC[C@@H]4[C@@]5(C)CC6=C(C7C(=O)N(c8ccccc8)C(=O)C7C=C6C(F)(F)F)C(C)(C)[C@@H]5CC[C@]43C)[C@@H]12 (stereo partly specified) ) = 56

For reference, reported remaining at 1 h for CC(C)[C@@H]1CC[C@]2(C(=O)O)CC[C@]3(C)[C@H](CC[C@@H]4[C@@]5(C)Cc6c(C(F)(F)F)cc(=O)oc6C(C)(C)[C@@H]5CC[C@]43C)[C@@H]12 stands at 82

For reference, reported remaining at 1 h for C=C(C)[C@@H]1CC[C@]2(C(=O)O)CC[C@]3(C)[C@H](CC[C@@H]4[C@@]5(C)CC6=C(C7C(=O)N(c8ccccc8)C(=O)C7C=C6C(F)(F)F)C(C)(C)[C@@H]5CC[C@]43C)[C@@H]12 (stereo partly specified) stands at 79

###

protocol description: Cytotoxicity against human K562-Tax cells assessed as reduction in cell viability incubated for 72 hrs by MTS assay
Assay type: functional, cell-based
The molecules listed here are annotated with their IC50.

structure as smiles: COC(=O)c1cc(C(F)(F)F)c2c(c1C(=O)OC)C(C)(C)[C@@H]1CC[C@]3(C)[C@H](CC=C4[C@@H]5[C@@H](C)[C@H](C)CC[C@]5(C(=O)O)CC[C@]43C)[C@@]1(C)C2
IC50: > 50 µM
--
structure as smiles: C[C@H]1[C@H](C)CC[C@]2(C(=O)O)CC[C@]3(C)C(=CC[C@@H]4[C@@]5(C)Cc6c(C(F)(F)F)cc7c(c6C(C)(C)[C@@H]5CC[C@]43C)C(=O)N(c3ccccc3)C7=O)[C@H]12
IC50: > 50 µM

Next:
For this molecule ( CC(C)[C@@H]1CC[C@]2(C(=O)O)CC[C@]3(C)[C@H](CC[C@@H]4[C@@]5(C)Cc6c(C(F)(F)F)cc(=O)oc6C(C)(C)[C@@H]5CC[C@]43C)[C@@H]12 ), measured IC50 is 17 µM

###

protocol description: Cytotoxicity against human BJ cells assessed as reduction in cell viability incubated for 72 hrs by MTS assay
Type: toxicity, cell-based
experimental endpoint: IC50 at 72 h

compound: CC(C)[C@@H]1CC[C@]2(C(=O)O)CC[C@]3(C)[C@H](CC[C@@H]4[C@@]5(C)CC6=C(C7C(=O)N(c8ccccc8)C(=O)C7C=C6C(F)(F)F)C(C)(C)[C@@H]5CC[C@]43C)[C@@H]12 (some centres undefined)
reported result: 25 µM

So for C=C(C)[C@@H]1CC[C@]2(C(=O)O)CC[C@]3(C)[C@H](CC[C@@H]4[C@@]5(C)Cc6c(C(F)(F)F)cc(C(=O)OC)c(C(=O)OC)c6C(C)(C)[C@@H]5CC[C@]43C)[C@@H]12 , the logged IC50 at 72 h turned out to be > 50 µM

Entry C=C(C)[C@@H]1CC[C@]2(C(=O)O)CC[C@]3(C)[C@H](CC[C@@H]4[C@@]5(C)CC6=C(C7C(=O)N(c8ccccc8)C(=O)C7C=C6C(F)(F)F)C(C)(C)[C@@H]5CC[C@]43C)[C@@H]12 (some centres undefined) — recorded IC50 at 72 h = > 50 µM

Measured IC50 at 72 h of CC(C)[C@@H]1CC[C@]2(C(=O)O)CC[C@]3(C)[C@H](CC[C@@H]4[C@@]5(C)Cc6c(C(F)(F)F)cc7c(c6C(C)(C)[C@@H]5CC[C@]43C)C(=O)N(c3ccccc3)C7=O)[C@@H]12 : > 50 µM
